# systemUnderTest: MAL^TIR (Homo sapiens)
# Construct: MAL (residues 79–221); 6xHis; made in house; host or cells: E. coli BL21 (DE3)
# measurementNotes: T‐Surf phage library (P8 and P3) selection against MAL^TIR, four rounds, NGS read counts
# Assay type: binding
# experimentalParameters: P3_MAL: rank by count after grouping
List of Rank (after) values.

# sequenceInput, Rank (after)
records = [
    ("NQWRNALTAASNLSIW", 169),
    ("KERPFGAQRAEKWRTALT", 466),
    ("SSFREGIWRLLELRKK", 394),
    ("NQWRNALTAAANLRGR", 145),
    ("YAFTGHQHNYMVQRGV", 420),
    ("PNLRTNVMNYLMRTKT", 175),
    ("LLIYRFVKKRNYLLGH", 416),
    ("RGFLSHLLLHLQAKDH", 395),
    ("VLHKFIGYLRDALQHR", 184),
    ("NQRRNAVTAAAKLSGC", 469),
]

###

# systemUnderTest: MAL^TIR (Homo sapiens, UniProt P58753)
# Construct: MAL (residues 79–221); 6xHis; made in house; host or cells: E. coli BL21 (DE3)
# Sequence (P58753 79-221): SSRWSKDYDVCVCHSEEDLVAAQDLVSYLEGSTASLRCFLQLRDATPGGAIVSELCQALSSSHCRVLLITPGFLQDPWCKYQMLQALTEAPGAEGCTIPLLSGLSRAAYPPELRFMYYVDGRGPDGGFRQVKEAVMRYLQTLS
# measurementNotes: T‐Surf phage library (P8 and P3) selection against MAL^TIR, four rounds, NGS read counts
# Format: binding
# experimentalParameters: P3_MAL: rank by count after grouping
# Description: T‐Surf libraries were screened against the immobilized TIR domains of two major human TLR adaptor proteins, MAL^TIR and MyD88^TIR, allowing cross‐species selection of TIR‐binding motifs with 190 946 TIR‐derived peptides in a single binding assay (Scheme 1). Enriched phage pools from the fourth round of selection were analyzed using NGS after barcoding the peptide‐coding regions of the phage pools. […]
measurementKind: Rank (after)

# sequenceInput, endpointResult
records = [
    ("SSFREGRWRLPEVSKT", 448),
    ("RLLKWKEALHQFHSSL", 172),
    ("RYIMPHPQELIQKNS", 389),
    ("YAFTGPPHRYMVQRGV", 460),
    ("VGWFLHTLSQHILKREK", 168),
    ("SSFRNDLWRLLELSKK", 419),
    ("YALTGQLHRYLVQRGV", 151),
    ("HHNSSYGEALAEHEKR", 167),
    ("YAFTGHLHRYLCSVA", 144),
    ("WFWEKLRYALTAAANLSGW", 149),
    ("EWILDTEARIWGWRQA", 452),
    ("RGFLAICVIICRRKI", 390),
    ("GFLYQAFAREGLQIFM", 164),
    ("YAFTGHRHRYLVKRGV", 179),
    ("NQWRNALTAAAHLSGL", 157),
    ("RLRKWKEALQQFHSWV", 139),
    ("NQCHNAITADMNQTRL", 402),
    ("WFWNNLKYALPLRYDP", 451),
]

###

# systemUnderTest: MAL^TIR (Homo sapiens)
# Construct: MAL (residues 79–221); 6xHis; made in house; host or cells: E. coli BL21 (DE3)
# measurementNotes: T‐Surf phage library (P8 and P3) selection against MAL^TIR, four rounds, NGS read counts
# Assay type: binding
# experimentalParameters: P8_MAL: rank by count before grouping

# sequenceInput, Rank (before)
data = [
    ("AFLCAHLKSVLGNPTI", 1804),
    ("PQDLEWFYERLVSLIL", 2328),
    ("WFWDKLKYALPHRYEP", 556),
    ("LFFWESLKQLLRSDG", 2104),
    ("TFLGHLHNALVQAGNH", 2608),
    ("SPQEQDGFWVRLIEAL", 2527),
    ("AFFWEQLRTVLDHVNDV", 836),
    ("WCYERRVSLILRETKV", 1403),
    ("PFFWEHLRHLLRSHTL", 2325),
]

This collection of values is drawn from paper PMC11714206.
